Reference for the values: patent US20260184768A1

biological target: T1, full-length PcrV.6xhis (Pseudomonas aeruginosa); test: SPR (Biacore T200), mAb captured via anti-human Fc, PcrV injected, 37 C
T1 construct: Recombinant full-length V-tip protein of the type 3 secretion system, His-tagged; also called full-length PcrV with a C-terminal hexahistidine tag
binders and their reported koff

H1H29336P (antibody, V domains shown) VH: EVQLVESGGGLVQPGGSLRLSCAASGFTFSSYAMTWVRQAPGKGLEWVSSIRGSGYSSDYADSVKGRFTISRDNSENTVYLQMNRLRAEDTAVYYCAKERSVTAYYYYGMDVWGQGTTVTVSS VL: DIQLTQSPSFLSASVGDRVTITCWASQDISSFLTWYQQKPGIAPKLLIYTASTLQSGVPSRFSGSGSGTEFTLTISSLQPEDFATYYCQQLKSYPLTFGGGTKVEIKR yielded koff of ≤ 1e-05 s⁻¹

Entry H1H29339P (antibody, V domains shown) VH: EVQLVESGGDLVQPGGSLRLSCAASGFTFNTYAMNWVRQAPGKGLEWVAVIGGSGYSTNYADSVKGRFTISRDNSKNTLYLQMNSLRTEDTAVYYCAKEGNIVALYWYFDLWGRGTLVTVSS VL: DIQMTQSPSSLSASVGDRVTITCRASQSISRYLNWYQQKPGKAPKLLIYAASSLQGGVPSKFSGSGSGTDFTLTISSLQPEDFATYYCQQSSTTPLTFGGGTKVEIKR , koff reported as ≤ 1e-05 s⁻¹

Lab book: koff of H1H29329P (antibody, V domains shown) VH: EVQLVESGGGLVQPGGSLRLSCAASGFTFSDHEMNWVRQAPGKGLEWISYIGSGVVTMYYADSVRGRFTISRDNAKKTLYLQMNSLRAEDTAVYYCARDRGYYFGSEAFHYWGQGTLVTVSS VL: DIQMTQSPSTLSASVGDRVTITCRASQSISNWLAWYQQKPGKAPKLLIYKSSSLESGVPSRFSGSGSGTEFTLTISSLQPDDFATYYCQQYKSYSLTFGGGTKVEIKR noted as 0.00505 s⁻¹
